System: Strep. pyogen 02C203
protocolText: in vitro MIC, Inocula Replicating Device, anaerobic Gas Pac, BHI agar
Type: cell-based
conditions: unit assumed
recordedMetric: Primary in vitro Activity (MIC) (µg/mL)
# value in µg/mL; strip the unit string

Query string: Recorded Primary in vitro Activity (MIC) of CC(=O)c1c(COC(=O)c2ccc(O)cc2)[n+]([O-])c2ccccc2[n+]1[O-] [Compound 1] , please.
Result string: 3.12

Query string: Form field: reported Primary in vitro Activity (MIC) of CC(=O)c1c(COC(=O)c2cccc(O)c2)[n+]([O-])c2ccccc2[n+]1[O-] [Compound 2]
Result string: 25

Query string: Value lookup for Primary in vitro Activity (MIC); key = O=C(CCc1ccc(O)cc1)OCc1c(CO)[n+]([O-])c2ccccc2[n+]1[O-] [Compound 5]
Result string: 50

Query string: Name the recorded Primary in vitro Activity (MIC) for O=C(CCc1ccc(O)cc1)OCc1c[n+]([O-])c2ccccc2[n+]1[O-] [Compound 8] .
Result string: 6.25

Query string: Can you share its Primary in vitro Activity (MIC)? I mean this compound: CC(=O)c1c(COC(=O)Cc2ccc(O)cc2)[n+]([O-])c2ccccc2[n+]1[O-] [Compound 3]
Result string: 6.25

Query string: I have this compound here, O=C(Cc1ccc(O)cc1)OCc1c[n+]([O-])c2ccccc2[n+]1[O-] [Compound 9] , and I need its recorded Primary in vitro Activity (MIC).
Result string: 3.12

Query string: Requested field: Primary in vitro Activity (MIC). Item: O=C(C=Cc1ccc(O)cc1)OCc1c(CO)[n+]([O-])c2ccccc2[n+]1[O-] [Compound 7]
Result string: 12.5

---

Test system: Staph. aureus 01A106
protocolText: in vitro MIC, Inocula Replicating Device, anaerobic Gas Pac, BHI agar
Format: cell-based
conditions: unit assumed
recordedMetric: Primary in vitro Activity (MIC)

[
  {
    "compound": "O=C(Cc1ccc(O)cc1)OCc1c(CO)[n+]([O-])c2ccccc2[n+]1[O-] [Compound 6]",
    "testedOn": "Staph. aureus 01A106",
    "Primary in vitro Activity (MIC)": "1.56 µg/mL"
  },
  {
    "compound": "O=C(CCc1ccc(O)cc1)OCc1c(CO)[n+]([O-])c2ccccc2[n+]1[O-] [Compound 5]",
    "testedOn": "Staph. aureus 01A106",
    "Primary in vitro Activity (MIC)": "25 µg/mL"
  },
  {
    "compound": "CC(=O)c1c(COC(=O)CCc2ccc(O)cc2)[n+]([O-])c2ccccc2[n+]1[O-] [Compound 10]",
    "testedOn": "Staph. aureus 01A106",
    "Primary in vitro Activity (MIC)": "< 0.39 µg/mL"
  }
]

Query string: Sample O=C(C=Cc1ccc(O)cc1)OCc1c(CO)[n+]([O-])c2ccccc2[n+]1[O-] [Compound 7] — what was its Primary in vitro Activity (MIC)?
Result string: 6.25 µg/mL

Query string: Give its Primary in vitro Activity (MIC) value. Item: O=C(Cc1ccc(O)cc1)OCc1c[n+]([O-])c2ccccc2[n+]1[O-] [Compound 9]
Result string: 12.5 µg/mL

Query string: Give the measured Primary in vitro Activity (MIC) of CC(=O)c1c(COC(=O)c2ccc(O)cc2)[n+]([O-])c2ccccc2[n+]1[O-] [Compound 1] .
Result string: 1.56 µg/mL

---

Test system: Past. mult 59A004
protocolText: in vitro MIC, Inocula Replicating Device, anaerobic Gas Pac, BHI agar
Format: cell-based
conditions: unit assumed
Let's look at some molecules and their measured Primary in vitro Activity (MIC).
API: value field is a number in µg/mL; no unit string.

Query string: Primary in vitro Activity (MIC) lookup needed for CC(=O)c1c(COC(=O)c2ccc(O)cc2)[n+]([O-])c2ccccc2[n+]1[O-] [Compound 1] , thanks.
Result string: 12.5

Query string: Recorded Primary in vitro Activity (MIC) of O=C(Cc1ccc(O)cc1)OCc1c[n+]([O-])c2ccccc2[n+]1[O-] [Compound 9] , please.
Result string: 50

Query string: Which Primary in vitro Activity (MIC) value belongs to O=C(OCc1c(CO)[n+]([O-])c2ccccc2[n+]1[O-])c1ccc(O)cc1 [Compound 4] ?
Result string: 100

Query string: I am curious: what Primary in vitro Activity (MIC) value has been reported for CC(=O)c1c(COC(=O)c2cccc(O)c2)[n+]([O-])c2ccccc2[n+]1[O-] [Compound 2] ?
Result string: 12.5

Query string: Any idea what Primary in vitro Activity (MIC) was measured for CC(=O)c1c(COC(=O)Cc2ccc(O)cc2)[n+]([O-])c2ccccc2[n+]1[O-] [Compound 3] ?
Result string: 12.5

Query string: Quick one: Primary in vitro Activity (MIC) for O=C(C=Cc1ccc(O)cc1)OCc1c(CO)[n+]([O-])c2ccccc2[n+]1[O-] [Compound 7] ?
Result string: 12.5

Query string: Which Primary in vitro Activity (MIC) value belongs to O=C(Cc1ccc(O)cc1)OCc1c(CO)[n+]([O-])c2ccccc2[n+]1[O-] [Compound 6] ?
Result string: 12.5

Query string: Quick one: Primary in vitro Activity (MIC) of CC(=O)c1c(COC(=O)CCc2ccc(O)cc2)[n+]([O-])c2ccccc2[n+]1[O-] [Compound 10] ?
Result string: 25

Query string: Query: Primary in vitro Activity (MIC); subject: O=C(CCc1ccc(O)cc1)OCc1c(CO)[n+]([O-])c2ccccc2[n+]1[O-] [Compound 5]
Result string: 50

---

Test system: Strep. pyogen 02C203
protocolText: in vitro MIC, Inocula Replicating Device, anaerobic Gas Pac, BHI agar
Type: cell-based
conditions: unit assumed
recordedMetric: Primary in vitro Activity (MIC)

[
  {
    "compound": "O=C(OCc1c(CO)[n+]([O-])c2ccccc2[n+]1[O-])c1ccc(O)cc1 [Compound 4]",
    "Primary in vitro Activity (MIC)": "< 1.56 µg/mL"
  },
  {
    "compound": "O=C(Cc1ccc(O)cc1)OCc1c(CO)[n+]([O-])c2ccccc2[n+]1[O-] [Compound 6]",
    "Primary in vitro Activity (MIC)": "< 1.56 µg/mL"
  }
]

--- query ---
Query string: What Primary in vitro Activity (MIC) value was documented for this compound, CC(=O)c1c(COC(=O)CCc2ccc(O)cc2)[n+]([O-])c2ccccc2[n+]1[O-] [Compound 10] ?
Result string: < 0.39 µg/mL
